- assayed-target: F17aG receptor-binding domain (Escherichia coli)
- Construct: variants of the lectin domains with oligolysine (4Lys) tails have been constructed; made in house; host or cells: E. coli (periplasm)
- Sequence (Q99003 23-199): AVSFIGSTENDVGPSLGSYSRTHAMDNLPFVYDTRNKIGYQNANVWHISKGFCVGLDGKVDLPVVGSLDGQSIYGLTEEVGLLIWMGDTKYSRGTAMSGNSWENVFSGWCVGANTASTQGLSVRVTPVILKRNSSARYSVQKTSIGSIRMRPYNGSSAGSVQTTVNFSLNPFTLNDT
- assay-notes: biochemical
- conditions-used: Affinity range (Kd class), F17aG, SPR steady state, 25 °C, pH 7.4
measured-metric: Kd

>>> print(df.to_string())
                                   compound    result
0  CC(=O)N[C@H]1[C@H]([C@H](O)[C@H](O)CO)OC(O)(C(=O)O)C[C@@H]1O (some centres unmarked)  > 100 mM

# input I'd like to know its Kd. The compound in question is CC(=O)N[C@@H]1[C@@H](O)[C@H](O)[C@@H](CO)O[C@H]1O
# output 1 to 10 mM

* * *

In this section we review reported Kd values for a set of molecules.
- assayed-target: F17bG receptor-binding domain (Escherichia coli, UniProt Q47200)
- Construct: variants of the lectin domains with oligolysine (4Lys) tails have been constructed; made in house; host or cells: E. coli (periplasm)
- Sequence (Q47200 23-199): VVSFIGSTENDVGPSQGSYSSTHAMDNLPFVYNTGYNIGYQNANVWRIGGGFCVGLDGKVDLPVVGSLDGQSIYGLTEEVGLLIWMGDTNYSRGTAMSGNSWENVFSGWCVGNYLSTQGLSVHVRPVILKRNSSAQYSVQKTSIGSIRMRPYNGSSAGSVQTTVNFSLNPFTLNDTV
- conditions-used: SPR steady state, 25 °C, pH 7.4; read-out: Affinity range (Kd class), F17bG

# input molecule: CC(=O)N[C@H]1C(O)O[C@H](CO)[C@@H](O[C@@H]2O[C@H](CO)[C@@H](O)[C@H](O)[C@H]2N)[C@@H]1O[C@H](C)C(=O)O (stereo partly shown) ; wanted: its Kd
# output 10 to 100 mM

# input Given CC(=O)N[C@H]1C(O)O[C@H](COP(=O)(O)O)[C@@H](O)[C@@H]1O (stereo partly shown) , state its recorded Kd.
# output 10 to 100 mM

# input If you can, please state the reported Kd value of CC(=O)N[C@@H]1C(O)O[C@H](CO)[C@@H](O)[C@@H]1O (stereo partly shown) .
# output 10 to 100 mM

# input Report Kd for CO[C@@H]1O[C@H](CO)[C@H](O)[C@H](O[C@@H]2O[C@H](CO)[C@@H](O)[C@H](O)[C@H]2NC(C)=O)[C@H]1O please.
# output 1 to 10 mM

# input Form field: reported Kd of CC(=O)N[C@H]1C(O)O[C@H](CO)[C@@H](O)[C@@H]1OS(=O)(=O)O (stereo partly shown)
# output 1 to 10 mM

# input What value of measured Kd is listed for CC(=O)N[C@H]1[C@H](Oc2ccc([N+](=O)[O-])cc2)O[C@H](CO)[C@@H](O)[C@@H]1O ?
# output 10 to 100 mM

# input Given CC(=O)N[C@H]1[C@H](O[C@H]2[C@H](O)[C@@H](NC(C)=O)C(O)O[C@@H]2CO)O[C@H](CO)[C@@H](O)[C@@H]1O (stereo partly shown) , state its recorded Kd.
# output 1 to 10 mM

* * *

- assayed-target: F17aG receptor-binding domain (Escherichia coli)
- Construct: variants of the lectin domains with oligolysine (4Lys) tails have been constructed; made in house; host or cells: E. coli (periplasm)
- assay-notes: biochemical
- conditions-used: SPR steady state, 25 °C, pH 7.4; read-out: Affinity range (Kd class), F17aG
measured-metric: Kd

Answered cases to consult:
compound	Kd
CC(=O)N[C@H]1C(O)O[C@H](CO)[C@@H](O)[C@@H]1OS(=O)(=O)O (stereo partly drawn)	1 to 10 mM
CC(=O)N[C@H]1[C@H](O[C@H]2[C@@H](O)[C@@H](CO)O[C@@H](O[C@H]3[C@H](O)[C@@H](O)C(O)O[C@@H]3CO)[C@@H]2O)O[C@H](CO)[C@@H](O[C@@H]2O[C@H](CO)[C@H](O)[C@H](O)[C@H]2O)[C@@H]1O (stereo partly drawn)	10 to 100 mM
CC(=O)N[C@@H]1[C@@H](O)[C@H](O)[C@@H](COS(=O)(=O)O)O[C@H]1O	10 to 100 mM
CC(=O)N[C@H]1C(O)O[C@H](CO)[C@H](O)[C@@H]1O[C@@H]1O[C@H](CO)[C@H](O)[C@H](O)[C@H]1O (stereo partly drawn)	10 to 100 mM
CC(=O)N[C@H]1[C@H](O[C@H]2[C@@H](O)[C@@H](CO)O[C@@H](O[C@H]3[C@H](O)[C@@H](O)C(O)O[C@@H]3CO)[C@@H]2O)O[C@H](CO)[C@@H](O)[C@@H]1O[C@@H]1O[C@H](CO)[C@H](O)[C@H](O)[C@H]1O[C@@H]1O[C@@H](C)[C@@H](O)[C@@H](O)[C@@H]1O (stereo partly drawn)	> 100 mM

# input Entry CO[C@@H]1O[C@H](CO[C@@H]2O[C@H](CO)[C@@H](O)[C@H](O)[C@H]2NC(C)=O)[C@H](O)[C@H](O)[C@H]1O : reported Kd = ?
# output 1 to 10 mM
